System: T47D
Test: NCI tumour cell line growth inhibition, 48 h
Active and inactive are the calls of the source. No stated cut-off is given here; in the data, active = GI50 up to about 1.1 µM and inactive = higher.
Labels: true (1) (active), false (0) (inactive)

- Cc1cc(C)c(C2=NOC(c3ccccc3)(c3cc(=O)n(-c4ccccc4)s3)O2)c(C)c1 (centres undefined): false (0)
- O=S(=O)(O)c1ccc2c(/N=N\c3ccc(F)cc3)c(O)c(S(=O)(=O)O)cc2c1: false (0)
- CCOC(=O)C1(C(C)=O)OC(=O)c2cnccc21 (centres undefined): false (0)
- Oc1[nH]c(Nc2cccc(Br)c2)nc2ncnc1-2: false (0)
- CN(C)CCNCCCNc1c2ccccc2nc2cccc([N+](=O)[O-])c12: true (1)
- C[N+](CCCl)(CCCl)Cc1cccc2cccc([N+](=O)[O-])c12: false (0)
- COc1cnc2oc3ccc(O)cc3c2c1-c1ccccc1: false (0)
- O=C1C(=Cc2ccc(O)cc2)N=C(c2ccccc2)N1n1c(-c2ccccc2)nc2ccccc2c1=O: false (0)
- CC(=O)c1ccc(-c2oc(-c3ccccc3)cc2-c2ccc3c(c2)OCO3)s1: false (0)
- COc1ccc(OC)c([N+](=O)[O-])c1-c1nc2sccn2c1/C=N/N=C(N)N: false (0)
- CC(C)CCC[C@@H](C)C1CCC2[C@@H]3CCC4C[C@@H](NS(C)(=O)=O)CC[C@]4(C)C3CC[C@@]21C (some centres undefined): false (0)
- CN(C)CCCNc1ccc2nnn3c4ccc(OC(=O)c5ccc([N+](=O)[O-])cc5)cc4c(=O)c1c23: false (0)
- COc1ccc(C(OCC2OC(n3cnc4c(=O)n(Cc5ccccc5[N+](=O)[O-])nnc43)C(O)C2O)(c2ccccc2)c2ccc(OC)cc2)cc1 (centres undefined): false (0)
- N#Cc1c(N2CCC(O)C2)c2ccccc2n2c1nc1ccccc12 (centres undefined): false (0)
- COc1cc(Cc2cnc(N)nc2N)cc(OC)c1OCCCNc1ccc([N+](=O)[O-])cc1: false (0)
- O=c1c(C(c2ccc3ccccc3c2)c2c(O)oc3ccccc3c2=O)c(O)oc2ccccc12: false (0)
- CC(=N/NC(=S)Nc1c(C)n(C)n(-c2ccccc2)c1=O)/C(C)=N\NC(=S)Nc1c(C)n(C)n(-c2ccccc2)c1=O: false (0)
- O=C(N/N=C/c1ccc([N+](=O)[O-])cc1)c1cccc2nc3ccccc3nc12: false (0)
- CCOC(=O)[C@@]12NN=N[C@@H]1[C@H]1CO[C@H](c3ccccc3)N1C2=O: false (0)

###

Recorded GI50 by entry
Test system: SK-OV-3
Experiment: NCI tumour cell line growth inhibition, 48 h
Activity calls are given as the source filed them. Rule as the data show it: active = GI50 up to about 1.1 µM and inactive = higher.
reportedEndpoint: GI50

- O=C(N/N=C/c1ccc([N+](=O)[O-])cc1)c1cccc2nc3ccccc3nc12: > 56.9 µM (inactive)
- O=C1C[S+]([O-])C23c4cc5ccccc5n4CCC2CCCN13 (stereo not drawn): > 100 µM (inactive)
- COc1ccc(/C=C2/CSC/C(=C/c3ccc(OC)c(OC)c3)C2=O)cc1OC: 6.73 µM (inactive)

###

Test system: MCF7
Assay: NCI tumour cell line growth inhibition, 48 h
Activity calls are given as the source filed them. Rule as the data show it: active = GI50 up to about 1.1 µM and inactive = higher.
Labels: Yes for active, No for inactive

* Nc1ccn(C2OC(CO)C(O)C2O)c(=O)c1 (stereo not given) | No
* COc1ccc(/N=N/c2ccc3oc(=O)c(C(=O)Nc4ccc(Cl)cc4)cc3c2)cc1 | No
* Cc1ccc(-n2cc(-c3ccc(Cl)cc3)c(C#N)c2N)cc1 | No
* COC(=O)C1C(O)C(C)C(O)C(C)C=C(C)C2=C3C(=C(C)C(=O)c4c(O)c(c(C)c(OC(C)=O)c43)NC(=O)C(C)=C/C=C\C(C)C(O)C(C)C1O)OCO2 (stereo not given) | No
* Cc1cc(=O)n2nc(CSc3nnc(Sc4cc(O)ccc4O)s3)sc2n1 | No
* O=Nc1ccc(O)c2ncccc12 | No
* CN(C)CCNCCCNc1c2ccccc2nc2cccc([N+](=O)[O-])c12 | Yes
* COC(=O)CCCC(=O)NC1=C(Nc2ccccc2)C(=O)c2ccccc2C1=O | No
* N#Cc1c(Cl)cc(C#N)n2c1nc1ccccc12 | No
* Cc1ccc(/N=N/c2cc(=O)[nH]c(=O)[nH]2)cc1C | No
